The values you see were collected from paper PMC5681660.

Molecular target: human NTCP (Homo sapiens, UniProt Q14973)
Sequence (Q14973 1-349): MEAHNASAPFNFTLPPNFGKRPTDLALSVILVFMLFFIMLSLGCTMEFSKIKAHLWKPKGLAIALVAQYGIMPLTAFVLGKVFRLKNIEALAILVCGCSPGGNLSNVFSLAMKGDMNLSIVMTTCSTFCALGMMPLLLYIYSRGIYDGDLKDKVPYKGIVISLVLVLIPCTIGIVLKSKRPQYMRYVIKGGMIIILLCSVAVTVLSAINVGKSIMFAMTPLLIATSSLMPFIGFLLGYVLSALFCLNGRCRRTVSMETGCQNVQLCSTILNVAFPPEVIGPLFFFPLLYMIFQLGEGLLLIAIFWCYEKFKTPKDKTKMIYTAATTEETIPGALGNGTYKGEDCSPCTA
Assay: Screening taurocholate uptake assay (96-well, [14C]taurocholate, 10 µM drug)
Conditions: Prestwick library screen, taurocholate uptake, 10 µM drug
Structures can show the parent of a compound that is named as a salt.
ATTRIBUTE_MEASURED: B-score functional assay

# input # get_value(readout= B-score functional assay, system= human NTCP (Homo sapiens, UniProt Q14973)) for Nc1nc2c(ncn2COCCO)c(=O)[nH]1
# output 0.026

# input # get_value(readout= B-score functional assay, system= human NTCP (Homo sapiens, UniProt Q14973)) for CN(C)CCCN1c2ccccc2CCc2ccc(Cl)cc21 [Clomipramine hydrochloride]
# output 4.061

# input # get_value(readout= B-score functional assay, system= human NTCP (Homo sapiens, UniProt Q14973)) for CCN(CC)CCOc1ccc(C(=C(Cl)c2ccccc2)c2ccccc2)cc1.O=C(O)CC(O)(CC(=O)O)C(=O)O [Clomiphene citrate (Z,E)]
# output 0.862

# input # get_value(readout= B-score functional assay, system= human NTCP (Homo sapiens, UniProt Q14973)) for NC(N)=Nc1nc(CSCCC(N)=NS(N)(=O)=O)cs1
# output 0.754

# input # get_value(readout= B-score functional assay, system= human NTCP (Homo sapiens, UniProt Q14973)) for CC[C@@H](C(N)=O)N1CCCC1=O
# output -0.058

# input # get_value(readout= B-score functional assay, system= human NTCP (Homo sapiens, UniProt Q14973)) for C=C(C)[C@@H]1[C@H]2OC(=O)[C@@H]1[C@]1(O)C[C@H]3O[C@]34C(=O)O[C@H]2[C@]14C
# output 0.075

# input # get_value(readout= B-score functional assay, system= human NTCP (Homo sapiens, UniProt Q14973)) for C[N+]1(C)CCC(OC(=O)C(O)(c2ccccc2)C2CCCC2)C1 (stereo not shown) [Glycopyrrolate]
# output 0.403

# input # get_value(readout= B-score functional assay, system= human NTCP (Homo sapiens, UniProt Q14973)) for CCCN(CCC)S(=O)(=O)c1ccc(C(=O)O)cc1
# output -0.194

# input # get_value(readout= B-score functional assay, system= human NTCP (Homo sapiens, UniProt Q14973)) for CC(C)(C)C(=O)OCOC(=O)[C@@H]1N2C(=O)[C@@H](/N=C/N3CCCCCC3)[C@H]2SC1(C)C [Pivmecillinam hydrochloride]
# output -0.103

# input # get_value(readout= B-score functional assay, system= human NTCP (Homo sapiens, UniProt Q14973)) for C[C@H](N[C@@H](CCc1ccccc1)C(=O)O)C(=O)N1CCC[C@H]1C(=O)O.O.O [Enalaprilat dihydrate]
# output 0.051

# input # get_value(readout= B-score functional assay, system= human NTCP (Homo sapiens, UniProt Q14973)) for Cc1ccc(N(CC2=NCCN2)c2cccc(O)c2)cc1 [Phentolamine hydrochloride]
# output -0.082

# input # get_value(readout= B-score functional assay, system= human NTCP (Homo sapiens, UniProt Q14973)) for CCN(CC)CC(=O)Nc1c(C)cccc1C [Lidocaine hydrochloride]
# output 0.516

# input # get_value(readout= B-score functional assay, system= human NTCP (Homo sapiens, UniProt Q14973)) for C[C@]12C=CC(=O)C=C1CC[C@H]1[C@@H]3C[C@@H](O)[C@](O)(C(=O)CO)[C@@]3(C)C[C@H](O)[C@@]12F
# output 1.923

# input # get_value(readout= B-score functional assay, system= human NTCP (Homo sapiens, UniProt Q14973)) for COc1ccc(C[C@@H]2c3cc(OC)c(OC)cc3CC[N@+]2(C)CCC(=O)OCCCCCOC(=O)CC[N@@+]2(C)CCc3cc(OC)c(OC)cc3[C@H]2Cc2ccc(OC)c(OC)c2)cc1OC [Cisatracurium besylate]
# output 0.628

# input # get_value(readout= B-score functional assay, system= human NTCP (Homo sapiens, UniProt Q14973)) for CN(C/C=C/c1ccccc1)Cc1cccc2ccccc12 [Naftifine hydrochloride]
# output 0.726

# input # get_value(readout= B-score functional assay, system= human NTCP (Homo sapiens, UniProt Q14973)) for COCCCOc1ccnc(C[S+]([O-])c2nc3ccccc3[nH]2)c1C (stereo not shown) [Rabeprazole Sodium salt]
# output 1.371

# input # get_value(readout= B-score functional assay, system= human NTCP (Homo sapiens, UniProt Q14973)) for CCCCOC(=O)c1ccc(O)cc1
# output 5.239

# input # get_value(readout= B-score functional assay, system= human NTCP (Homo sapiens, UniProt Q14973)) for CN1CCC2(C)c3cc(O)ccc3N(C)C12.O=C(O)/C=C/C(=O)O (single isomer, unassigned; (-)) [(-)-Eseroline fumarate salt]
# output 0.19

# input # get_value(readout= B-score functional assay, system= human NTCP (Homo sapiens, UniProt Q14973)) for COc1ccc(-c2cc(=S)ss2)cc1
# output 0.437

# input # get_value(readout= B-score functional assay, system= human NTCP (Homo sapiens, UniProt Q14973)) for CCCCC(=O)N(Cc1ccc(-c2ccccc2-c2nnn[nH]2)cc1)[C@H](C(=O)O)C(C)C
# output 0.156

# input # get_value(readout= B-score functional assay, system= human NTCP (Homo sapiens, UniProt Q14973)) for CNC(C)(C)Cc1ccccc1.CNC(C)(C)Cc1ccccc1.O=S(=O)(O)O [Mephentermine hemisulfate]
# output -0.093

# input # get_value(readout= B-score functional assay, system= human NTCP (Homo sapiens, UniProt Q14973)) for CC(=O)Nc1c(I)c(C(=O)N[C@H]2C(O)O[C@H](CO)[C@@H](O)[C@@H]2O)c(I)c(N(C)C(C)=O)c1I (stereo partly shown) [Metrizamide]
# output 0.395

# input # get_value(readout= B-score functional assay, system= human NTCP (Homo sapiens, UniProt Q14973)) for CN(C/C=C/C#CC(C)(C)C)Cc1cccc2ccccc12
# output 3.878

# input # get_value(readout= B-score functional assay, system= human NTCP (Homo sapiens, UniProt Q14973)) for Cc1cc(N)c2ccccc2[n+]1CCCCCCCCCC[n+]1c(C)cc(N)c2ccccc21 [Dequalinium dichloride]
# output -0.527

# input # get_value(readout= B-score functional assay, system= human NTCP (Homo sapiens, UniProt Q14973)) for Cc1ncc(C[n+]2csc(CCO)c2C)c(N)n1 [Thiamine hydrochloride]
# output 1.872

# input # get_value(readout= B-score functional assay, system= human NTCP (Homo sapiens, UniProt Q14973)) for CC1(C)O[C@@H]2[C@@H](CO[C@@]3(COS(N)(=O)=O)OC(C)(C)O[C@@H]23)O1 [Topiramate]
# output 1.004

# input # get_value(readout= B-score functional assay, system= human NTCP (Homo sapiens, UniProt Q14973)) for CC[C@@]1(O)C(=O)OCc2c1cc1n(c2=O)Cc2cc3c(CN(C)C)c(O)ccc3nc2-1
# output 0.858

# input # get_value(readout= B-score functional assay, system= human NTCP (Homo sapiens, UniProt Q14973)) for CC1(C)S[C@@H]2[C@H](NC(=O)Cc3ccccc3)C(=O)N2[C@H]1C(=O)O.CC1(C)S[C@@H]2[C@H](NC(=O)Cc3ccccc3)C(=O)N2[C@H]1C(=O)O.c1ccc(CNCCNCc2ccccc2)cc1
# output -0.072

# input # get_value(readout= B-score functional assay, system= human NTCP (Homo sapiens, UniProt Q14973)) for COc1cc(OC)c(C(=O)CCCN2CCCC2)c(OC)c1.Cl [Buflomedil hydrochloride]
# output 2.687

# input # get_value(readout= B-score functional assay, system= human NTCP (Homo sapiens, UniProt Q14973)) for O=C(CCCCC(=O)Nc1c(I)cc(I)c(C(=O)O)c1I)Nc1c(I)cc(I)c(C(=O)O)c1I [Iodipamide]
# output 2.519

# input # get_value(readout= B-score functional assay, system= human NTCP (Homo sapiens, UniProt Q14973)) for O=C(O)c1cccnc1Nc1cccc(C(F)(F)F)c1
# output 0.166

====

Target: human NTCP (Homo sapiens, UniProt Q14973)
Assay: Screening taurocholate uptake assay (96-well, [14C]taurocholate, 10 µM drug)
Conditions: ranking score beside the functional and binding assay B-scores of the screen
Counter-ions that a name gives are not always drawn.
Give measured Ranking score for each item. Keep answers brief.
No unit in the answer, please; the number alone is enough.

# input # get_value(readout= Ranking score, system= human NTCP (Homo sapiens, UniProt Q14973)) for CCN(CC)CCNC(=O)c1ccc(N)cc1 [Procainamide hydrochloride]
# output 672.44

# input # get_value(readout= Ranking score, system= human NTCP (Homo sapiens, UniProt Q14973)) for Cc1cc(-c2ccccc2)nnc1NCCN1CCOCC1 [Minaprine dihydrochloride]
# output 814.509

# input # get_value(readout= Ranking score, system= human NTCP (Homo sapiens, UniProt Q14973)) for Cc1ccccc1OCC(O)CO (stereo not shown)
# output 689.632

# input # get_value(readout= Ranking score, system= human NTCP (Homo sapiens, UniProt Q14973)) for CC1(C)O[C@@H]2[C@@H](CO[C@@]3(COS(N)(=O)=O)OC(C)(C)O[C@@H]23)O1 [Topiramate]
# output 700.689

# input # get_value(readout= Ranking score, system= human NTCP (Homo sapiens, UniProt Q14973)) for Cn1c(=O)c2c(ncn2CC(O)CO)n(C)c1=O (stereo not shown)
# output 816.025

# input # get_value(readout= Ranking score, system= human NTCP (Homo sapiens, UniProt Q14973)) for CCC(=O)O[C@@H](O[P@](=O)(CCCCc1ccccc1)CC(=O)N1C[C@H](C2CCCCC2)C[C@H]1C(=O)O)C(C)C
# output 655.924

# input # get_value(readout= Ranking score, system= human NTCP (Homo sapiens, UniProt Q14973)) for CCC1(c2ccc(N)cc2)CCC(=O)NC1=O (stereo not shown) [Glutethimide, para-amino]
# output 663.514

# input # get_value(readout= Ranking score, system= human NTCP (Homo sapiens, UniProt Q14973)) for O=C(O)c1cccnc1Nc1cccc(C(F)(F)F)c1
# output 675.036

# input # get_value(readout= Ranking score, system= human NTCP (Homo sapiens, UniProt Q14973)) for CN1CCC(=C2c3ccccc3CCc3sccc32)CC1.O=C(O)CC(O)C(=O)O [Pizotifen malate]
# output 745.131

# input # get_value(readout= Ranking score, system= human NTCP (Homo sapiens, UniProt Q14973)) for Nc1ccn([C@@H]2O[C@H](CO)[C@@H](O)C2(F)F)c(=O)n1
# output 717.496

# input # get_value(readout= Ranking score, system= human NTCP (Homo sapiens, UniProt Q14973)) for NC[C@H]1O[C@H](O[C@H]2[C@H](O)[C@@H](O[C@H]3O[C@H](CO)[C@@H](O)[C@H](N)[C@H]3O)[C@H](N)C[C@@H]2N)[C@H](O)[C@@H](O)[C@@H]1O [Kanamycin A sulfate]
# output 673.457

# input # get_value(readout= Ranking score, system= human NTCP (Homo sapiens, UniProt Q14973)) for CC(C)NC[C@@H](O)c1ccc(O)c(O)c1.O=C(O)C(O)C(O)C(=O)O [(+)-Isoproterenol (+)-bitartrate salt]
# output 708.011

# input # get_value(readout= Ranking score, system= human NTCP (Homo sapiens, UniProt Q14973)) for Clc1ccc(C(Cn2ccnc2)OCc2csc3c(Cl)cccc23)c(Cl)c1 (stereo not shown) [Sertaconazole nitrate]
# output 730.855

# input # get_value(readout= Ranking score, system= human NTCP (Homo sapiens, UniProt Q14973)) for CC(c1cc2ccccc2s1)N(O)C(N)=O (stereo not shown)
# output 706.817

# input # get_value(readout= Ranking score, system= human NTCP (Homo sapiens, UniProt Q14973)) for NS(=O)(=O)c1cc2c(cc1Cl)N=C(CSCc1ccccc1)NS2(=O)=O [Benzthiazide]
# output 714.84

# input # get_value(readout= Ranking score, system= human NTCP (Homo sapiens, UniProt Q14973)) for CC1(C)O[C@@H]2C[C@H]3[C@@H]4C[C@H](F)C5=CC(=O)C=C[C@]5(C)[C@H]4[C@@H](O)C[C@]3(C)[C@]2(C(=O)CO)O1 [Flunisolide]
# output 805.548
